Consider the following compounds and their measured melting point readings.

Example cases with answers are listed next.
Return melting point for the following compound: CC(=O)C1CCC2C3CCC4CC(OC(=O)CI)CCC4(C)C3C(OC(=O)CI)CC12C (stereo not drawn) 112 to 113 °C

Return melting point for the following compound: O=C(O)c1cc(NC(C(=O)O)c2ccccc2Cl)c(Cl)cc1Cl (stereo not drawn) 210 °C

Return melting point for the following compound: COc1cc2c(cc1OC)N(C(C)=O)CC(N(C)C)C2 (stereo not drawn) 145 to 147 °C

Return melting point for the following compound: `NC(=O)CN1C(=O)C(=Cc2ccc(OCCc3ccccc3)c(OCc3ccccc3)c2)SC1=S` 212 to 214 °C

Continuing:
Return melting point for the following compound: Cc1cn([C@H]2C=C[C@@H](O)C2)c(=O)nc1-n1cncn1 (racemic) 143 to 146 °C

Return melting point for the following compound: `COc1ccc(-c2nn(CC=Cc3ccc(F)cc3F)c(=O)cc2-c2ccncc2)cc1` 55.4 to 56.9 °C

Return melting point for the following compound: `CCOC(=O)c1c(CN2C(=O)CN(C)C2=O)nc2sc3c(c2c1-c1ccc(OC)c(OC)c1)CCN(C(=O)c1ccccc1)C3` 185 to 187 °C

Return melting point for the following compound: CC(C)(C)c1ccc(C2=NC[C@@H](OC(=O)Nc3ccccc3)[C@H](c3ccccc3)O2)cc1 (racemic) 80 °C

====

experimental_readout: melting point

Return melting point for the following compound: CN(C)CC(C)(CSC(=S)N(C)C)[N+](=O)[O-] (stereo not given) 75.5 to 78 °C

Return melting point for the following compound: `c1ccc(-n2c(-c3ccc(OCCN4CCCCC4)cc3)nc3ccccc32)cc1` 107 °C

Return melting point for the following compound: CCCCCCCCCCCCC(O)CC#CCCCC(=O)O (stereo not given) 80.5 to 81 °C

Return melting point for the following compound: `CCOC(=O)CCc1cn(Cc2ccc(O)cc2)nc1O` 143 to 144 °C

Return melting point for the following compound: `CC=CC(=O)c1c(CCC)n(Cc2ccccc2Cl)c2cc(C(N)=O)ccc12` 186 °C

Return melting point for the following compound: `CC(=O)Nc1nc2c(Oc3cc(-c4ccc(C(F)(F)F)cc4NC(=O)CC4CCCCC4)ncn3)cccc2s1` 288 to 289 °C

Continuing:
Return melting point for the following compound: `C[C@@H](n1ccn(-c2ccc(OCC(F)(F)C(F)F)cc2)c1=O)[C@](O)(CO)c1ccccc1F` 166 to 167 °C

Return melting point for the following compound: `CC(C)Cc1cc2cc(O)c(Cl)c(Cl)c2s1` 58 to 59 °C

====

Consider the following molecules and their measured melting point readings.

Example cases with answers are listed next.
Return melting point for the following molecule: Cc1ccc(C)c(CN2CCN(C)CC(NC(=O)c3n[nH]c4ccccc34)C2)c1 (centres undefined) 168 to 170 °C

Return melting point for the following molecule: O=C(O)CCSC1c2ccc(SCC(=O)O)cc2COc2ccc(OCc3ccc4ccc(Cl)cc4n3)cc21 (centres undefined) 165 to 167 °C

Return melting point for the following molecule: `N#CN1c2ccccc2CC(=O)c2ccccc21` 153 to 154 °C

Return melting point for the following molecule: COc1cc(N)c(Cl)cc1C(=O)NC1CCN(CCCOc2ccc(F)cc2)CC1(F)F (centres undefined) 126 °C

Return melting point for the following molecule: `CC(O)=C(C#N)C(=O)Nc1ccc(Cl)cc1` 209 to 211 °C

API: the following record is the query input.
Return melting point for the following molecule: `CC(C)(C)c1ccc(C2(O)CN(C(c3ccccc3)c3ccccc3)C2)cc1` 168 to 169 °C

====

Consider the following compounds and their measured melting point readings.

Example cases with answers are listed next.
Return melting point for the following compound: O=C1CC2(CCCC2)C(O)C(=O)N1CCCCN1CCN(c2nsc3ccccc23)CC1 (centres undefined) 151 °C

Return melting point for the following compound: `CCCc1c(C(=O)C(C)C)c2ccc(C(N)=O)cc2n1Cc1ccccc1Br` 173 to 174 °C

Return melting point for the following compound: CC(C)(C)OC(=O)NC1CCCOCC=CC2CC2(C(=O)NS(=O)(=O)C2CC2)NC(=O)C2CC(OCc3ccccc3)CN2C1=O (centres undefined) 147 to 149 °C

Return melting point for the following compound: `CC(C)(C)OC(=O)N1CCN(Cc2ccc(Cl)c(Cl)c2)CC1` 75 to 76 °C

Return melting point for the following compound: `COCc1nc(C(C)(C)O)c(C(=O)OCc2oc(=O)oc2C)n1Cc1ccc(-c2ccccc2-c2nnn[nH]2)cc1` 138 to 140 °C

Return melting point for the following compound: CC1CC(C)CC2(C1)OC(N)=NC2=O (centres undefined) 276 to 281 °C

Return melting point for the following compound: `CC(=O)Nc1c(S(N)(=O)=O)cc(C(=O)O)c(Nc2ccccc2)c1NCc1ccco1` 250 °C

Return melting point for the following compound: `COc1ccc(-c2ccc(O)cc2C=O)cc1Cl` 168 to 170 °C

Return melting point for the following compound: NC(=O)c1cc(C(O)CN(Cc2ccccc2)Cc2ccccc2)cc2cc[nH]c12 (centres undefined) 116 to 118 °C

Return melting point for the following compound: COC(=O)c1cc2c(NC3CCC(O)CC3)nc(-c3ccccc3)nc2[nH]1 (centres undefined) 225 to 227 °C

API: the following record is the query input.
Return melting point for the following compound: Cc1cccc(C2(c3ccc(F)c(-c4ccc(NC(=O)NN5CCOCC5)cc4)c3)CNC(C(C)C)=N2)n1 (centres undefined) 141 to 143 °C

====

Consider the following compounds and their measured melting point readings.

Example cases with answers are listed next.
Return melting point for the following compound: `CC(=O)Nc1ccc2oc([N+](=O)[O-])c(-c3ccccc3)c2c1` 204 to 207 °C

Return melting point for the following compound: COCCN1CCC(O)(c2cc(F)cc(F)c2)C1 (single isomer, unassigned; (-)) 130 to 131 °C

Return melting point for the following compound: S=C(NCCCC1(Cl)CC=CS1)Nc1ccccn1 (configuration not stated) 116 to 122 °C

Return melting point for the following compound: COc1ccc2c(C(=O)c3ccc(OC4CCCCC4N4CCOCC4)cc3)c(-c3ccc(OCCN4CCCC4)cc3)sc2c1 (configuration not stated) 50 to 57 °C

Return melting point for the following compound: `COCCCCCCCCCCCC(=O)NCc1ccccc1` 77.7 to 79.4 °C

Return melting point for the following compound: `COC(=O)c1c(N)c2ccccc2[nH]c1=O` 236 °C

Return melting point for the following compound: `CCOc1ccc(O)c(C(C)(C)C)c1` 96 to 98 °C

Return melting point for the following compound: O=C(OCc1ccc(Br)cc1)C1C(=O)OC2CC(=O)N21 (configuration not stated) 106 °C

Return melting point for the following compound: `Cc1c(OCCCl)cccc1[N+](=O)[O-]` 58 to 59 °C

Return melting point for the following compound: Cc1cc(Nc2ccnc(Nc3ccc(S(=O)(=O)N(CC4CCCO4)C4CCN(C)CC4)cc3)n2)ccc1F (configuration not stated) 189 °C

API: the following record is the query input.
Return melting point for the following compound: c1cc2c3c(c1)C1CCCCCCC1N3CCNC2 (configuration not stated) 58 to 63 °C

====

Consider the following compounds and their measured melting point readings.

Example cases with answers are listed next.
Return melting point for the following compound: `CCCOc1ccccc1-c1ccoc1C(=O)NNC(=O)c1ccc(O)c(C#N)c1` 114 to 117 °C

Return melting point for the following compound: CN1C(=O)Nc2ccc(Cl)cc2C12NC(=O)NC2=O (stereo not given) > 280 °C

Return melting point for the following compound: `CCn1c(=O)c2c(nc(/C=C/c3cccc(O)c3O)n2C)n(CC)c1=O` 242 to 244 °C

Return melting point for the following compound: `CCOC(=O)c1cc(C(C)C)n(-c2ccc(Cl)cc2Cl)n1` 93 to 95 °C

Return melting point for the following compound: COc1ccccc1C(C)NCC(=O)Nc1c(C(C)C)cccc1C(C)C (stereo not given) 68 to 70 °C

Return melting point for the following compound: `CCc1nn(C2CN(C(C)C)C2)c(C(N)=O)c1NC(=O)c1cc(S(C)(=O)=O)ccc1OCC(C)C` 185 to 189 °C

Return melting point for the following compound: COc1ccc(O[C@@H]2COc3ccc(OCc4ccccn4)cc3[C@@H]2O)cc1 (relative stereo) 117 to 118 °C

Return melting point for the following compound: Cc1cccc2c1-c1ccccc1C2CO (stereo not given) 120 to 122 °C

Return melting point for the following compound: `O=C(O)/C=C/c1ccc(OCCC2OCCO2)cc1Oc1ncc(C(F)(F)F)cc1Cl` 157 to 158 °C

API: the following record is the query input.
Return melting point for the following compound: `Clc1ccnc(Nc2ccccc2)n1` 134 to 135 °C

====

experimental_readout: melting point

Return melting point for the following compound: CC(C)(C)NCC(O)COc1ccc2c(=O)cc(-c3cc(O)cc(O)c3)oc2c1 (stereo not given) 153 °C

Return melting point for the following compound: `Cc1cn(C2CC2)c(=O)nc1NS(=O)(=O)c1ccc(N)cc1` 134 to 136 °C

Return melting point for the following compound: `CCOc1ccc2nc(N3CCC(OC[C@H](C)NC(C)=O)CC3)sc2c1` 129 to 131 °C

Return melting point for the following compound: `Nc1ccc(C2=NNC(=O)Cc3cc4c(cc32)OCO4)cc1Cl` 256 to 258 °C

Return melting point for the following compound: `Cc1ccc2[nH]c3c(N)nn(C)c3c(=O)c2c1` > 300 °C

Return melting point for the following compound: `CC(=O)NCc1c(C)cc(CN2CCN(c3ccccc3)CC2)cc1C` 159 to 160 °C

Return melting point for the following compound: `CCn1c(=O)n(C2CCN(CCCCN3C(=O)c4ccccc4S3(=O)=O)CC2)c2ccccc21` 124 to 125 °C

Return melting point for the following compound: `CC(C)(C)c1ccc(Oc2ccc([N+](=O)[O-])cc2C(=O)Nc2ccccc2)cc1` 138 to 140 °C

Return melting point for the following compound: `CSc1ncc(C#N)c(NC(C)C)n1` 121 to 122 °C

API: the following record is the query input.
Return melting point for the following compound: Cc1cccc(NC(=O)NC2N=C(c3ccccc3F)c3ccccc3N(Cc3csc4ccccc34)C2=O)c1 (racemic) 214 to 216 °C
